- System: Staphylococcus aureus subsp. aureus (ATCC29213)
- experimentalDetails: MIC, broth microdilution (CLSI), Staphylococcus aureus subsp. aureus ATCC29213
- Assay type: cell-based
- protocolConditions: ATCC29213, Table 16, read-out: MIC S. aureus ATCC 29213
Please go through the items and note down their MIC.
Numbers only, in µg/mL.

Below are some compounds; for each one, tell me its MIC.
1. Cl.NC1CCCC(CNc2cc(C(F)(F)F)cc3c2Nc2ccc(N4CCCC4)cc2S3)C1 (stereo not shown) [compound 300]
2. CC1(C)CCCN(c2ccc3c(c2)Sc2cc(C(F)(F)F)cc(NC4CCN(CCN)CC4)c2N3)C1.Cl.Cl [compound 305]
3. NCCNC(=O)c1ccc2c(c1)Sc1cc(C(F)(F)F)cc(NC3CCN(CCN)CC3)c1N2 [compound 255]
4. CC1CC(C)CN(c2ccc3c(c2)Sc2cc(C(F)(F)F)cc(NC4CCN(CCN)CC4)c2N3)C1.Cl.Cl.Cl (stereo not shown) [compound 274]

1. 1
2. 1
3. 8
4. 1

====

- Test system: Escherichia coli (ATCC25922)
- experimentalDetails: MIC, broth microdilution (CLSI), Escherichia coli ATCC25922
- protocolConditions: ATCC25922, read-out: E. coli MIC, Table 15, NI = No inhibition
metricName: log10 MIC (log10 of the value in µg/mL)
In our notation, the value equals log10 of MIC in µg/mL.

Completed entries (count: 5):
compound	metricName	observedValue
O=C(Nc1cc(C(F)(F)F)cc2c1Nc1ccccc1S2)C1CCCNC1 (stereo not drawn) [compound 91]	log10 MIC	1.51
NCCN1c2ccccc2Sc2cc(-c3cc4ccccc4[nH]3)ccc21 [compound 213]	log10 MIC	1.36
NCCN1CCCC(Nc2cc(C(F)(F)F)cc3c2Nc2ccccc2S3)CC1 (stereo not drawn) [compound 225]	log10 MIC	0.85
NC1CCCC(C(=O)Nc2cc(Cl)cc3c2Nc2ccccc2S3)C1 (stereo not drawn) [compound 161]	log10 MIC	1.98
O=C(Nc1cc(C(F)(F)F)cc2c1Nc1ccccc1S2)[C@@H]1CCCNC1 [compound 100]	log10 MIC	1.51

Alright, here's another compound for you.
Which measured log10 MIC belongs to O=C(Nc1cc(C(F)(F)F)cc2c1Nc1ccccc1S2)C1CCNCC1 [compound 207] , tested on Escherichia coli (ATCC25922)?
1.70

====

Would you mind telling me the reported MIC of each entry?
- System: Staphylococcus aureus (ATCC25923)
- experimentalDetails: MIC, broth microdilution (CLSI), Staphylococcus aureus ATCC25923
- protocolConditions: ATCC25923, read-out: S. aureus ("Clinical") MIC
The reply must contain the numeric value and, after it, the unit.

compound	targetOrTestSystem	observedValue
NCCN1CCCC(C(=O)Nc2cc(C(F)(F)F)cc3c2Nc2ccccc2S3)C1 (stereo not shown) [compound 203]	Staphylococcus aureus (ATCC25923)	14 µg/mL
Nc1cc(C(F)(F)F)cc2c1N(CCCn1ccnc1)c1ccccc1S2 [compound 44]	Staphylococcus aureus (ATCC25923)	2 µg/mL
FC(F)(F)c1cc2c3c(c1)nc(C1CCNCC1)n3-c1ccccc1S2 [compound 232]	Staphylococcus aureus (ATCC25923)	6 µg/mL

The record that follows has no MIC shown yet.
Find the recorded MIC belonging to N[C@H]1CCC[C@H](CNc2cc(C(F)(F)F)cc3c2Nc2ccccc2S3)C1.O=C(O)C(F)(F)F [compound 187] and report it.
4 µg/mL
